# assayProtocol: KB-8-5-11 Cancer Cell Toxicity qHTS against the NCATS CANVASS Library (AID 1347364); also: nearly all actives have a fitted effect of over 75% in size
# measurementParameters: KB-8-5-11 MDR cells viability, CellTiter-Glo, 72 h; series mostly up to 46.1 µM
Records with an inconclusive call do not appear. The source made the active and inactive calls. Calls follow the shape of the dose curve; as a rule, active = well fitted cell-killing curve with a large enough effect; inconclusive = small, poorly fitted or top-dose-only effect; inactive = flat fitted curve, though single readings scatter.
Answer with one of the outcomes given here: 1.0 for active, 0.0 for inactive

Example results:
# compound, className
records = [
    ("C[C@@]12CCC[C@@](C)(C(=O)O)[C@H]1C[C@@H](O)[C@@]13C[C@@H](CC[C@@H]21)[C@](C)(O)C3", 0.0),
    ("CO[C@H]1/C=C/CCCCC(=O)O[C@@H](/C(C)=C/[C@H](C)C(=O)C[C@H](O)CC2CC(=O)NC(=O)C2)[C@@H](C)C1", 0.0),
    ("CCC(C)=C1OC(=O)[C@H](C)[C@H](O)[C@H](Cc2cccnc2)NC(=O)C(NC(=O)c2ncccc2O)C(C)OC1=O (some centres not stated)", 0.0),
]

INPUT: What is the recorded call for this compound in the test? `C[C@@H]1CC[C@]2(C(=O)O)CC[C@]3(C)C(=C2[C@H]1C)CC[C@@H]1[C@@]2(C)CC[C@H](O)C(C)(C)[C@@H]2CC[C@]13C`
OUTPUT: 0.0

INPUT: What is the recorded call for this compound in the test? `COc1cc([C@@H]2c3cc4c(cc3C[C@@]3(O[C@@H]5O[C@H](CO)[C@@H](O)[C@H](O)[C@H]5O)COC(=O)[C@H]23)OCO4)cc(OC)c1OC`
OUTPUT: 1.0

INPUT: What is the recorded call for this compound in the test? `CC[C@H]1[C@@H](C)[C@@H](c2cc(OC)c(OC)cc2OC)[C@H](C)[C@@H](c2cc(OC)c(OC)cc2OC)[C@@]12C=C(OC)C(=O)C=C2OC`
OUTPUT: 1.0

INPUT: What is the recorded call for this compound in the test? `COC(=O)[C@@]12Oc3cccc(O)c3C(O)=C1C(=O)C[C@H](C)[C@H]2O`
OUTPUT: 0.0

INPUT: What is the recorded call for this compound in the test? `CC(C)=CC[C@H]1C[C@@]2(CC=C(C)C)C(=O)[C@](CC=C(C)C)(C(=O)C(C(=O)c3ccccc3)=C2O)C1(C)C`
OUTPUT: 1.0

INPUT: What is the recorded call for this compound in the test? `CCC(=O)N[C@@H](C[C@H](C)C(Cl)(Cl)Cl)C(=O)N1C(=O)C=C(OC)[C@@H]1C[C@H](C)CCl`
OUTPUT: 0.0

INPUT: What is the recorded call for this compound in the test? `CN1CC[C@]2(c3cccc4c3N[C@H]3N(C)CC[C@@]43[C@]34CCN(C)[C@H]3Nc3ccccc34)c3ccccc3N[C@H]12`
OUTPUT: 1.0

INPUT: What is the recorded call for this compound in the test? CC1(C)CC[C@]2(CO)CC[C@]3(C)C(=CCC4[C@@]5(C)CC[C@H](O)C(C)(C)C5CC[C@]43C)C2C1 (some centres not stated)
OUTPUT: 0.0

INPUT: What is the recorded call for this compound in the test? `CC(C)=CCC/C(C)=C/Cc1cc([C@@H]2CC(=O)c3c(cc(O)c(CC=C(C)C)c3O)O2)ccc1O`
OUTPUT: 0.0

---

# assayProtocol: AP1 Signaling Pathway (AID 357);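 also: ME-180 reporter cells stimulated with EGF at its EC50 level; % is scaled to controls: 0 for no effect and ±100 for the full control effect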
# measurementParameters: ME-180 (cervical carcinoma) AP-1-bla reporter, EGF-induced, beta-lactamase ratio, 5 h; at 7.69 µM (top of the series) unless noted
# Description: NCGC Assay Overview: Activator protein-1 (AP-1), a transcription factor, plays an important role in tumor genesis by regulating genes involved in cell proliferation, differentiation, apoptosis, and angiogenesis. AP-1 activity is induced by a complex network of signaling pathways that involves extracellular signals, such as growth factors. […] Library compounds were measured for their ability to modulate positively or negatively the action of EC50 EGF on reporter gene activity. […]
Results filed as inconclusive are left out.
Quick reference: activity change, negative = inhibition of the listed items.
Record the value in %, omitting the unit from your answer.

# sampleSmiles, property, reportedValue
data = [
    ("COc1ccc(NC(=O)N2CCCC3(CCN(S(C)(=O)=O)CC3)C2)cc1", "activity change, negative = inhibition", -11.2),
    ("O=S(=O)(c1ccccc1)N1CCC[C@@]2(CCN(c3ccccc3)C2)C1", "activity change, negative = inhibition", -10.1),
    ("O=C(Oc1ccccc1)N1CCC2(CC1)CCN(c1ncccn1)CC2", "activity change, negative = inhibition", 3.96),
]

INPUT: Tell us which activity change, negative = inhibition value is on record for `CN(C)Cc1ccccc1-c1nc(NC2CCNCC2)c2ccccc2n1`
OUTPUT: 24.8

INPUT: Tell us which activity change, negative = inhibition value is on record for `CS(=O)(=O)Nc1cccc(-c2ccc3ncnc(NC4CCNCC4)c3c2)c1`
OUTPUT: 6.55

INPUT: Tell us which activity change, negative = inhibition value is on record for `COc1cccc(-c2nccc(NCc3cccc(C)c3)n2)c1`
OUTPUT: -15.4

INPUT: Tell us which activity change, negative = inhibition value is on record for `CN(C)c1ncc2ncc(=O)n(CCc3ccccc3)c2n1`
OUTPUT: -21.4

INPUT: Tell us which activity change, negative = inhibition value is on record for `O=C(c1ccncc1)N1CCC2(CC1)CCN(c1ccccc1)CC2`
OUTPUT: -1.33

INPUT: Tell us which activity change, negative = inhibition value is on record for `Cc1noc(C)c1-c1cc(NC2CC2)ncn1`
OUTPUT: -3.03

INPUT: Tell us which activity change, negative = inhibition value is on record for `COc1ccccc1-c1cncnc1NCc1cccnc1`
OUTPUT: -10.2

INPUT: Tell us which activity change, negative = inhibition value is on record for `COc1ccc(C(=O)N2CCC3(CCN(C)CC3)CC2)cc1`
OUTPUT: -25.4

---

# studySystem: Cytochrome P450 1A2 (Homo sapiens)
# assayProtocol: p450-cyp1a2 (AID 410)
# measurementParameters: recombinant CYP1A2, luciferin-ME demethylation, luminescence; series mostly up to 57 µM
Results filed as inconclusive are left out. Calls of active or inactive are those of the source. The call rests on the fitted dose curve.
Answer with one of the outcomes given here: active, inactive

# sampleSmiles, studySystem, className
records = [
    ("COc1cccc(Cn2c(=O)c(-c3cccs3)nc3cnc(N(C)C)nc32)c1", "Cytochrome P450 1A2 (Homo sapiens)", "active"),
    ("COc1ccc(C(=O)N2CCC3(CC2)CN(C(=O)Nc2ccccc2)C3)cc1", "Cytochrome P450 1A2 (Homo sapiens)", "active"),
    ("COc1ccc(NC(=O)N2CC3(CCN(C(=O)c4cccn4C)CC3)C2)cc1", "Cytochrome P450 1A2 (Homo sapiens)", "inactive"),
    ("COc1ccc(NC(=O)N2CC3(CCN(C(=O)c4ccc(OC)cc4)CC3)C2)cc1", "Cytochrome P450 1A2 (Homo sapiens)", "inactive"),
    ("c1cncc(CNc2nc(-c3ccoc3)nc3ccccc23)c1", "Cytochrome P450 1A2 (Homo sapiens)", "active"),
    ("COc1ccc(Oc2ncc3nc(-c4ccc(OC)cc4)c(=O)n(C)c3n2)cc1", "Cytochrome P450 1A2 (Homo sapiens)", "active"),
    ("CS(=O)(=O)N1CCC2(CCN(c3ccccc3)CC2)CC1", "Cytochrome P450 1A2 (Homo sapiens)", "inactive"),
    ("O=C(Oc1ccccc1)N1CCC[C@@]2(CCN(c3ncccn3)C2)C1", "Cytochrome P450 1A2 (Homo sapiens)", "active"),
    ("CN(C)c1ncc2ncc(=O)n(CCC#N)c2n1", "Cytochrome P450 1A2 (Homo sapiens)", "active"),
    ("CN(C)c1ccc(-c2nc(N(C)Cc3ccco3)c3ccccc3n2)cc1", "Cytochrome P450 1A2 (Homo sapiens)", "active"),
]

Turning to the following molecule.
INPUT: What is the recorded call for this molecule in the test? `COC(=O)N1CCC2(CCCN(Cc3ccccc3OC)C2)CC1`
OUTPUT: inactive

---

# assayProtocol: qHTS Assay for Lipid Storage Modulators (AID 1519)
# measurementParameters: Drosophila S3 cells, BODIPY lipid droplet/cell ratio, laser cytometry; measured here: lipid channel max response; cells loaded with oleic acid
Records with an inconclusive call do not appear.
property: max response (%)
Record the value in %, omitting the unit from your answer.

Known max response results, listed for orientation:
# sampleSmiles, unitDescriptor, reportedValue
measured = [
    ("O=C(c1ccncc1)N1CCC[C@@]2(CCN(c3ncccn3)C2)C1", "%", 24.4),
    ("CC(C)NC(=O)N1CCC2(CC1)CCN(C(=O)c1ccco1)CC2", "%", 11.7),
    ("Cn1c(=O)c(-c2ccc(Cl)cc2)nc2cnc(Oc3cccc(Cl)c3)nc21", "%", 14.2),
    ("Cc1ccccc1-c1nc(N2CCNCC2)c2ccccc2n1", "%", 27.5),
]

Continue with the compound presented below.
INPUT: Tell us which max response value is on record for `COc1ccc(CNc2ncnc3ccc(-c4cccc(NS(C)(=O)=O)c4)cc23)c(OC)c1`
OUTPUT: -11.3
